compounds and their reported GI50
Tested on: DMS-114
Experiment: NCI tumour cell line growth inhibition, 48 h
Active and inactive are the calls of the source. Cut-off read from the data, not from the text of the source: active = GI50 up to about 1.1 µM and inactive = higher.
experimental endpoint: GI50

>>> reported_result("Cc1c2ccncc2cc2c1sc1ccncc12")
"6.21 µM (inactive)"
>>> reported_result("CC(=O)Nc1ccc(C2[C@H]3C(=O)N(c4ccc(Cc5ccc(N6C(=O)[C@@H]7ON(c8ccccc8)C(c8ccc(NC(C)=O)cc8)[C@@H]7C6=O)cc5)cc4)C(=O)[C@H]3ON2c2ccccc2)cc1 (some centres undefined)")
"> 100 µM (inactive)"
>>> reported_result("CN(C)CCNC(=O)c1cccc2ccc(-c3ccc(F)cc3)nc12")
"5.48 µM (inactive)"
>>> reported_result("C[N+](C)([O-])CCOc1cc2c(c3ccccc13)-c1ccccc1C2=O")
"7.83 µM (inactive)"

###

Tested on: NCI-H460
Assay: NCI tumour cell line growth inhibition, 48 h
Active and inactive are the calls of the source. No stated cut-off is given here; in the data, active = GI50 up to about 1.1 µM and inactive = higher.
Catalogue of compounds with associated GI50
experimental endpoint: GI50

>>> reported_result("COc1ccccc1-c1cc(=O)c2ccccc2[nH]1")
"> 100 µM (inactive)"
>>> reported_result("O=c1[nH]c(=O)n(C2CC(O)C(CO)O2)cc1OCC1CCCCC1 (stereo not given)")
"> 100 µM (inactive)"
>>> reported_result("COC(=O)c1cn(CC(O)CCl)nn1 (stereo not given)")
"> 100 µM (inactive)"
>>> reported_result("CCOC(=O)CCC(C(=O)OCC)n1nc2ccc(Nc3c(C)[n+]([O-])c4cc(Cl)ccc4[n+]3[O-])cc2n1 (stereo not given)")
"24.3 µM (inactive)"
>>> reported_result("O=[N+]([O-])c1ccc(-c2ccc(/C=N/n3c(S)nnc3-c3ccc(Cl)cc3)o2)cc1")
"21.5 µM (inactive)"

###

Test system: Hs-578T
Assay: NCI tumour cell line growth inhibition, 48 h
Activity calls are given as the source filed them. Cut-off read from the data, not from the text of the source: active = GI50 up to about 1.1 µM and inactive = higher.
experimental endpoint: GI50

>>> reported_result("CC(=O)Oc1ccc2cc(Oc3ccc(Cl)c(Cl)c3)c(=O)oc2c1")
"33 µM (inactive)"
>>> reported_result("CC(=O)O[C@H]1CC[C@@]2(C)C(=CC[C@@H]3[C@@H]2CC[C@]2(C)c4nc(N)c(C#N)cc4C[C@@H]32)C1")
"24.9 µM (inactive)"
>>> reported_result("N#CCc1n[nH]c2nc(SCc3ccccc3)nc(N3CCCCC3)c12")
"21.4 µM (inactive)"
>>> reported_result("CC(=O)C1CC[C@@H]2[C@H](CC[C@]3(C)[C@@H](O)CC[C@@H]23)[C@H]1C(=O)O (some centres undefined)")
"74.1 µM (inactive)"
>>> reported_result("C[C@@H](c1ccccc1)N1CN(C(=O)OCc2ccccc2)C(C)(C)CC1=O")
"> 100 µM (inactive)"
>>> reported_result("Cn1c(=O)nc2n(CCO)c(-c3ccccc3)c(-c3ccccc3)nc-2c1=O")
"86.3 µM (inactive)"
>>> reported_result("Cc1ccc(NC(=O)C23CC4CC(CC(C4)C2)C3)c(C(=O)NNC(=O)c2ccc(Cl)cc2)c1")
"4.3 µM (inactive)"
>>> reported_result("CC1(C)CC(=O)C2=C(C1)OC1=C(CC(C)(C)CC1=O)C2c1ccccc1[N+](=O)[O-] (centres undefined)")
"> 100 µM (inactive)"
>>> reported_result("Nc1ncnc2c1ncn2-c1ccc([N+](=O)[O-])cn1")
"61.9 µM (inactive)"
>>> reported_result("CCOC(=O)C1CCCN1C(=O)c1ccccc1Cl (centres undefined)")
"> 100 µM (inactive)"
>>> reported_result("COc1cc2ccnc3c2c(c1O)N(C)C=C3")
"18.7 µM (inactive)"
>>> reported_result("C[C@]12CC[C@H]3[C@@H](CCC4=CC(=O)CC[C@@]43C)[C@@H]1CC[C@@H]2C(=O)COS(=O)(=O)c1ccc(Br)cc1")
"20.4 µM (inactive)"
>>> reported_result("CCCCCCCCC[C@@H]1C[C@@H]2CCC3C(C(=O)OCCCCNC(=O)OCc4ccccc4)=C(C)N=C(N1)N32 (some centres undefined)")
"2.51 µM (inactive)"
>>> reported_result("C=CCSC1=N/C(=C\\c2ccco2)C(=O)N1CC=C")
"> 100 µM (inactive)"
>>> reported_result("CCCCCCOc1ccc(NC2=C(Cl)C(=O)c3ncccc3C2=O)cc1")
"1.79 µM (inactive)"
>>> reported_result("CC(C)(C)n1c(=O)[nH]c(=O)n1C(C)(C)C")
"> 100 µM (inactive)"
>>> reported_result("CC(CC[C@@H](O)C(C)(C)O)C1[C@@H](O)CC2(C)C3CC(O)C4C(C)(C)[C@@H](OC5OC(CO)C(O)C(O)C5O)CC[C@@]45C[C@@]35CC[C@]12C (some centres undefined)")
"> 10 µM (inactive)"
>>> reported_result("Cn1c(=O)sc2cc(C(=S)N3CCCCC3)ccc21")
"30.8 µM (inactive)"
>>> reported_result("Cc1ccc(C)c(NC(=O)C(=O)C(c2cnc3ccc([N+](=O)[O-])cc3n2)[N+](=O)[O-])c1 (centres undefined)")
"> 100 µM (inactive)"

###

Tested on: ACHN
Assay: NCI tumour cell line growth inhibition, 48 h
Activity calls are given as the source filed them. No stated cut-off is given here; in the data, active = GI50 up to about 1.1 µM and inactive = higher.
GI50 overview
experimental endpoint: GI50

>>> reported_result("CC1=C(C(=O)NCCCN(CCO)CCO)CC(C(=O)NCCCN(CCO)CCO)=C(C)N1")
"97.1 µM (inactive)"
>>> reported_result("COC(=O)c1c(C)cccc1C1CN=NC12Cc1c(C)cccc1C2=O (stereo unspecified)")
"79.3 µM (inactive)"
>>> reported_result("Cc1cnc(/N=c2\\sc(C)cn2-c2ncc(C)s2)s1")
"> 100 µM (inactive)"
>>> reported_result("O=c1[nH]c(=O)n(Cc2ccccc2CO)cc1Sc1ccccc1")
"26.5 µM (inactive)"
>>> reported_result("COc1cc2cc(C(=O)N3C[C@H](CCl)c4c3cc(O)c3ccccc43)[nH]c2c(OC)c1OC")
"0.0393 µM (active)"
>>> reported_result("COC[C@@H](/N=C/C(C)(C)C)C(C)C")
"> 100 µM (inactive)"
>>> reported_result("COc1cc(O)cc2oc(-c3ccc(O)cc3)cc(=O)c12")
"64.7 µM (inactive)"
>>> reported_result("Cc1ccc(Cl)c2c1NC(=O)/C2=N\\Nc1ccccc1[N+](=O)[O-]")
"76.7 µM (inactive)"
>>> reported_result("Cc1cc(Cc2c(F)c(F)c(Cc3cc(C)no3)c(F)c2F)on1")
"> 100 µM (inactive)"
>>> reported_result("CCC(C)C(Nc1c2ccccc2nc2c(C(=O)NCCN(C)C)cccc12)C(=O)O (stereo unspecified)")
"7.94 µM (inactive)"
>>> reported_result("N#CC(C(=N/NC(N)=S)/C(=N\\NC(N)=S)C(C#N)c1ccccc1)c1ccccc1 (stereo unspecified)")
"> 10 µM (inactive)"

###

Test system: SR
Test: NCI tumour cell line growth inhibition, 48 h
The source made the active and inactive calls. Cut-off read from the data, not from the text of the source: active = GI50 up to about 1.1 µM and inactive = higher.
Outcome codes: active, inactive

>>> group_label("C=C1C(=O)O[C@H]2[C@@H](O)[C@H](C)CCC[C@]3(C)O[C@H]3CC[C@@]3(C)O[C@@H]3C[C@@H]12")
"inactive"
>>> group_label("C=C[C@@H](C)[C@]1(C(=O)OC)CCCC12OCCO2")
"inactive"
>>> group_label("O=c1oc2ccc3ccccc3c2cc1-c1cn2ccsc2n1")
"inactive"
>>> group_label("CCOS(=O)(=O)c1ccc(-c2c3nc(c(-c4ccc(S(=O)(=O)OCC)cc4)c4ccc([nH]4)c(-c4ccc(S(=O)(=O)OCC)cc4)c4nc(c(-c5ccc(S(=O)(=O)OCC)cc5)c5ccc2[nH]5)C=C4)C=C3)cc1")
"inactive"
>>> group_label("CC(=O)OCC1OC(OC2CC3C(C)(C)C(OC(C)=O)CC[C@]3(C)C3CCC45CC4(CC[C@H]5C(C)CC(O)C4OC4(C)C)[C@]23C)C(O)C(O)C1O (some centres undefined)")
"inactive"
>>> group_label("O=C(/C=N/O)c1c(-c2ccccc2)[nH]c(-c2ccccc2)c1-c1ccccc1")
"active"
>>> group_label("C=CCSC1=N/C(=C\\c2ccco2)C(=O)N1CC=C")
"inactive"
>>> group_label("C=C1C(=O)O[C@H]2[C@H]3O[C@@H](C[C@@H]12)[C@](C)(O)CC[C@@H]1O[C@@]1(C)CCC[C@H]3C")
"inactive"
>>> group_label("O=C(Nc1ccc(Cl)cc1)NS(=O)(=O)c1coc2ccccc2c1=O")
"inactive"
>>> group_label("O=C(/C(Cl)=C/c1ccccc1)c1ccccc1")
"inactive"
>>> group_label("C[C@H](CS)C(=O)N1c2ccccc2C[C@H]1C(=O)O")
"inactive"
>>> group_label("COc1ccc(/N=C2\\C(=N/c3ccc(OC)cc3)N(c3ccccc3[N+](=O)[O-])C(=S)N2c2ccc(OC)cc2)cc1")
"inactive"
>>> group_label("Cc1ncc([N+](=O)[O-])n1CCNC(=O)CCCn1ccnc1[N+](=O)[O-]")
"inactive"
>>> group_label("C[Si](C)(C)/C=C/CN1C(=O)CCC1=O")
"inactive"
>>> group_label("Cc1oncc1/N=C1\\C=C(O)C(=O)c2ccccc21")
"inactive"
>>> group_label("O=C(CC(=O)c1ccncc1)c1ccccc1")
"inactive"
>>> group_label("c1ccc([P+](CCCCCCCC[P+](c2ccccc2)(c2ccccc2)c2ccccc2)(c2ccccc2)c2ccccc2)cc1")
"inactive"
>>> group_label("Oc1cc(F)cc2cccnc12")
"active"
>>> group_label("CN(C)CCCN1N=Nc2cccc3cccc1c23")
"inactive"
